- Tested on: biotinyl-Met-oxazolone
- Measurement description: self-aminoacylation, catalytic enhancement (BMO) (fold over background); higher = more active; k-Seq, kA / k0A0; sequences stand for … in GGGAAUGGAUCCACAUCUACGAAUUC…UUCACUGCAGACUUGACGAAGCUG
Fewer inactive variants are shown than the library holds.
Listing of entries alongside the reported self-aminoacylation.
Form rule: numeric answer, no unit written next to it.

Example sequences with recorded self-aminoacylation:
{"columns": ["Residue sequence", "Measured value"],
 "data": [
  ["CAACAAUUCAAGCAAUCGGUC [Fam1B.1 aminoacylation ribozyme variant]", 1.1],
  ["AUUCGCCUAGGUCAUCGGGCG [Fam2.2 aminoacylation ribozyme variant]", 4.99],
  ["AUUACCCUGGUUAUCGAGUAA [Fam2.1 aminoacylation ribozyme variant]", 1.44],
  ["AAGUUUGGUAAUAGUCGCAGG [Fam3.1 aminoacylation ribozyme variant]", 1.39],
  ["CUACGUCAGACAAUCGGUCUG [Fam1A.1 aminoacylation ribozyme variant]", 1.86]
]}

The sequence listed as CCACACUUCAAGCACUCGCUC [Fam1B.1 aminoacylation ribozyme variant] has a reported self-aminoacylation of 2.25

The sequence listed as CCACACUUCAAGCAGACGGUC [Fam1B.1 aminoacylation ribozyme variant] has a reported self-aminoacylation of 0.607

The sequence listed as AAUACCCUGGUCAUCGAGGGA [Fam2.1 aminoacylation ribozyme variant] has a reported self-aminoacylation of 1.18
